I'd be grateful if you could share measured koff for these entries.
Target: EX P22 VLP (expanded form of the bacteriophage P22 virus-like particle) (bacteriophage P22 (filing: P22 VLP from …, UniProt P26747 2-430))
Sequence (P26747 2-430 limits assumed): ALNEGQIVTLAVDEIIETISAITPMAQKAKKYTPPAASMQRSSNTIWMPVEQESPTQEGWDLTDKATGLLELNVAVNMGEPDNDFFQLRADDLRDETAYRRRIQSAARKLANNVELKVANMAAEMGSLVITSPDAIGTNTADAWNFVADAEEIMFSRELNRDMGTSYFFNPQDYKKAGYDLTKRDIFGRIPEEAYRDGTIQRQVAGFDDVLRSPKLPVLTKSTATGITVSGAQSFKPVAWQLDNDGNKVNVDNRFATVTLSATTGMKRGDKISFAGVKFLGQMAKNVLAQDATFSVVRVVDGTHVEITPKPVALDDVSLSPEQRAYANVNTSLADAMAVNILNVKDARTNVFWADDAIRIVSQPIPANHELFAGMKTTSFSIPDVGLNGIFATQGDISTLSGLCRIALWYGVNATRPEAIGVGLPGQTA
Give the value in s⁻¹ but do not write s⁻¹ after it.

Query: So what's the measured koff for this one? DecSelf (Dec fused at its C-terminus to the 21 amino acid CD47 mimic Self-peptide) (other) MGSSHHHHHHSQDPMANPNFTPSWPLYKDADGVYVSALPIKAIKYANDGSANAEFDGPYADQYMSAQTVAVFKPEVGGYLFRSQYGELLYMSKTAFEANYTSASGSVANAETADKLSTARTITLTGAVTGSASFDGSANVTIETTSGSELGNYTCEVTELTREGETIIELK
Reply: 0.00323

Query: What about DecmCD40L (Dec fused at its C-terminus to the soluble region of murine CD40L) (ligand) MGSSHHHHHHSQDPMANPNFTPSWPLYKDADGVYVSALPIKAIKYANDGSANAEFDGPYADQYMSAQTVAVFKPEVGGYLFRSQYGELLYMSKTAFEANYTSASGSVANAETADKLSTARTITLTGAVTGSASFDGSANVTIETTSGSELQRGDEDPQIAAHVVSEANSNAASVLQWAKKGYYTMKSNLVMLENGKQLTVKREGLYYVYTQVTFCSNREPSSQRPFIVGLWLKPSSGSERILLKAANTHSSSQLCEQQSVHLGGVFELQAGASVFVNVTEASQVIHRVGFSSFGLLKL ?
Reply: 0.0068

Query: What about DecΔ11 (Dec lacking the first 11 N-terminal residues) (other) MGSSHHHHHHSQDPLYKDADGVYVSALPIKAIKYANDGSANAEFDGPYADQYMSAQTVAVFKPEVGGYLFRSQYGELLYMSKTAFEANYTSASGSVANAETADKLSTARTITLTGAVTGSASFDGSANVTIETTSGS ?
Reply: 0.0044

Query: What about DecWT (other, also called Dec with an N-terminal his-tag) MGSSHHHHHHSLVPRGSQDPMANPNFTPSWPLYKDADGVYVSALPIKAIKYANDGSANAEFDGPYADQYMSAQTVAVFKPEVGGYLFRSQYGELLYMSKTAFEANYTSASGSVANAETADKLSTARTITLTGAVTGSASFDGSANVTIETTSGS ?
Reply: 0.00182

Query: What about DecΔ20 (Dec lacking the first 20 N-terminal residues) (other) MGSSHHHHHHSQDPVSALPIKAIKYANDGSANAEFDGPYADQYMSAQTVAVFKPEVGGYLFRSQYGELLYMSKTAFEANYTSASGSVANAETADKLSTARTITLTGAVTGSASFDGSANVTIETTSGS ?
Reply: 0.00024
